Kindly supply the reported IC50 values for the records listed here.
tested on: up-regulation of ICAM-1 (CD54) by IFNγ in A549 lung epithelial cells; assay: A549 Epithelial Line Stimulated with IFNγ (ICAM-1 surface expression, FACS); assay type: cell-based, human; settings: Homo sapiens, A549, A549 cells stimulated with IFNγ, ICAM-1 expression by FACS; read-out: IC50, Example 43
Give the number; µM is assumed, so skip it.

Query: # IC50 lookup, item N#CCN1C(=O)COc2ccc(Nc3nc(Nc4cccc(S(N)(=O)=O)c4)ncc3F)cc21
Response: 5

Query: # IC50 lookup, item NS(=O)(=O)c1cccc(Nc2ncc(F)c(Nc3ccc(-c4cnco4)cc3)n2)c1
Response: 16.1

Query: # IC50 lookup, item C=Cc1ccc(Nc2nc(Nc3ccc(C)c(S(N)(=O)=O)c3)ncc2F)cc1
Response: 31

Query: # IC50 lookup, item Cc1ccc(Nc2ncc(F)c(Nc3ccc4ncccc4c3)n2)cc1S(N)(=O)=O
Response: 7.5

* * *

test system: up-regulation of ICAM-1 (CD54) by IFNγ in A549 lung epithelial cells; test: A549 Epithelial Line Stimulated with IFNγ (ICAM-1 surface expression, FACS); format: cell-based, human; conditions: Homo sapiens, A549, A549 cells stimulated with IFNγ, ICAM-1 expression by FACS; read-out: IC50, Example 43
Kindly supply the reported IC50 values for the records listed here.

Query: Short answer please: IC50, up-regulation of ICAM-1 (CD54) by IFNγ in A549 lung epithelial cells, entry COc1ccc(Nc2nc(Nc3ccc(C)c(S(N)(=O)=O)c3)ncc2F)nc1N
Response: 17.1 µM

Query: Short answer please: IC50, up-regulation of ICAM-1 (CD54) by IFNγ in A549 lung epithelial cells, entry COc1ccc(Nc2nc(Nc3ccc(C(C)C)c(S(N)(=O)=O)c3)ncc2F)cc1Cl
Response: 10.5 µM

Query: Short answer please: IC50, up-regulation of ICAM-1 (CD54) by IFNγ in A549 lung epithelial cells, entry Cc1ccc2cc(Nc3nc(Nc4ccc(C)c(S(N)(=O)=O)c4)ncc3F)ccc2n1
Response: 5.47 µM

Query: Short answer please: IC50, up-regulation of ICAM-1 (CD54) by IFNγ in A549 lung epithelial cells, entry Cc1ccc(Nc2ncc(F)c(Nc3ccc4c(c3)NC(=O)CS4)n2)cc1S(N)(=O)=O
Response: 9.12 µM

Query: Short answer please: IC50, up-regulation of ICAM-1 (CD54) by IFNγ in A549 lung epithelial cells, entry C#CCOc1ccc(Nc2nc(Nc3ccc(C)c(S(N)(=O)=O)c3)ncc2F)cc1Cl
Response: 4.98 µM

Query: Short answer please: IC50, up-regulation of ICAM-1 (CD54) by IFNγ in A549 lung epithelial cells, entry Cc1ccc(Nc2ncc(F)c(Nc3ccc4c(c3)N(CC#N)C(=O)CS4)n2)cc1S(N)(=O)=O
Response: 6.87 µM

Query: Short answer please: IC50, up-regulation of ICAM-1 (CD54) by IFNγ in A549 lung epithelial cells, entry Cc1ccc(Nc2ncc(F)c(Nc3ccc(Cl)c(Cl)c3)n2)cc1S(N)(=O)=O
Response: 15 µM

Query: Short answer please: IC50, up-regulation of ICAM-1 (CD54) by IFNγ in A549 lung epithelial cells, entry Cc1ccc(Nc2ncc(F)c(Nc3ccc4[nH]cc(CC#N)c4c3)n2)cc1S(N)(=O)=O
Response: 3.38 µM

Query: Short answer please: IC50, up-regulation of ICAM-1 (CD54) by IFNγ in A549 lung epithelial cells, entry NS(=O)(=O)c1cc(Nc2ncc(F)c(Nc3ccc(O)cc3)n2)ccc1F
Response: 9.18 µM

Query: Short answer please: IC50, up-regulation of ICAM-1 (CD54) by IFNγ in A549 lung epithelial cells, entry NS(=O)(=O)c1cccc(Nc2ncc(F)c(Nc3ccc(CCCF)cc3)n2)c1
Response: 7.3 µM

Query: Short answer please: IC50, up-regulation of ICAM-1 (CD54) by IFNγ in A549 lung epithelial cells, entry Cc1ccc(Nc2ncc(F)c(Nc3ccc(CO)cc3)n2)cc1S(N)(=O)=O
Response: 5.92 µM

Query: Short answer please: IC50, up-regulation of ICAM-1 (CD54) by IFNγ in A549 lung epithelial cells, entry Cc1ccc2cc(Nc3nc(Nc4cccc(S(N)(=O)=O)c4)ncc3F)ccc2n1
Response: 9.93 µM

Query: Short answer please: IC50, up-regulation of ICAM-1 (CD54) by IFNγ in A549 lung epithelial cells, entry Cc1ccc(Nc2ncc(F)c(Nc3ccc(CCCF)cc3)n2)cc1S(N)(=O)=O
Response: 4.58 µM

Query: Short answer please: IC50, up-regulation of ICAM-1 (CD54) by IFNγ in A549 lung epithelial cells, entry Cc1cc2ccc(CNc3nc(Nc4cccc(S(N)(=O)=O)c4)ncc3F)cc2[nH]1
Response: 4.98 µM

Query: Short answer please: IC50, up-regulation of ICAM-1 (CD54) by IFNγ in A549 lung epithelial cells, entry COc1cc(Nc2nc(Nc3ccc(Cl)c(S(N)(=O)=O)c3)ncc2F)ccc1Cl
Response: 47.1 µM

Query: Short answer please: IC50, up-regulation of ICAM-1 (CD54) by IFNγ in A549 lung epithelial cells, entry COc1ccc(Nc2nc(Nc3cc(C)c(Cl)c(S(N)(=O)=O)c3)ncc2F)cc1Cl
Response: 6.42 µM

Query: Short answer please: IC50, up-regulation of ICAM-1 (CD54) by IFNγ in A549 lung epithelial cells, entry NS(=O)(=O)c1cccc(Nc2ncc(F)c(Nc3ccc(Cc4ccncc4)cc3)n2)c1
Response: 28.1 µM

Query: Short answer please: IC50, up-regulation of ICAM-1 (CD54) by IFNγ in A549 lung epithelial cells, entry NS(=O)(=O)c1cccc(Nc2ncc(F)c(Nc3ccc(CCCO)cc3)n2)c1
Response: 4.44 µM

Query: Short answer please: IC50, up-regulation of ICAM-1 (CD54) by IFNγ in A549 lung epithelial cells, entry NS(=O)(=O)c1cccc(Nc2ncc(F)c(Nc3ccc(CCCCF)cc3)n2)c1
Response: 13 µM

Query: Short answer please: IC50, up-regulation of ICAM-1 (CD54) by IFNγ in A549 lung epithelial cells, entry Cc1cc(Nc2nc(Nc3ccc(S(N)(=O)=O)cc3)ncc2F)cc(C)c1N1CCN(C)CC1
Response: 8.17 µM

Query: Short answer please: IC50, up-regulation of ICAM-1 (CD54) by IFNγ in A549 lung epithelial cells, entry NS(=O)(=O)c1cccc(Nc2ncc(F)c(Nc3ccc(CCCCO)cc3)n2)c1
Response: 5.76 µM

Query: Short answer please: IC50, up-regulation of ICAM-1 (CD54) by IFNγ in A549 lung epithelial cells, entry NS(=O)(=O)c1ccc(Nc2ncc(F)c(Nc3ccc(CCCCO)cc3)n2)cc1
Response: 24.7 µM

Query: Short answer please: IC50, up-regulation of ICAM-1 (CD54) by IFNγ in A549 lung epithelial cells, entry CN1C(=O)CSc2ccc(Nc3nc(Nc4cccc(S(N)(=O)=O)c4)ncc3F)cc21
Response: 3.06 µM

Query: Short answer please: IC50, up-regulation of ICAM-1 (CD54) by IFNγ in A549 lung epithelial cells, entry Cc1ccc(Nc2ncc(F)c(Nc3ccc(O)cc3)n2)cc1S(N)(=O)=O
Response: 14.7 µM

Query: Short answer please: IC50, up-regulation of ICAM-1 (CD54) by IFNγ in A549 lung epithelial cells, entry NS(=O)(=O)c1cccc(Nc2ncc(F)c(Nc3ccc4ncccc4c3)n2)c1
Response: 6.48 µM

Query: Short answer please: IC50, up-regulation of ICAM-1 (CD54) by IFNγ in A549 lung epithelial cells, entry C#CCOc1ccc(Nc2nc(Nc3ccc(C)c(S(N)(=O)=O)c3)ncc2F)cc1F
Response: 3.85 µM

Query: Short answer please: IC50, up-regulation of ICAM-1 (CD54) by IFNγ in A549 lung epithelial cells, entry C#CCNc1ccc(Nc2nc(Nc3ccc(C)c(S(N)(=O)=O)c3)ncc2F)cc1
Response: 4.13 µM

Query: Short answer please: IC50, up-regulation of ICAM-1 (CD54) by IFNγ in A549 lung epithelial cells, entry C#CCOc1ccc(Nc2nc(Nc3ccc(C)c(S(N)(=O)=O)c3)ncc2F)cc1
Response: 11.3 µM

Query: Short answer please: IC50, up-regulation of ICAM-1 (CD54) by IFNγ in A549 lung epithelial cells, entry Cc1ccc(Nc2ncc(F)c(Nc3ccc4c(c3)N(CC#N)C(=O)CO4)n2)cc1S(N)(=O)=O
Response: 5.21 µM

Query: Short answer please: IC50, up-regulation of ICAM-1 (CD54) by IFNγ in A549 lung epithelial cells, entry CC#CCOc1ccc(Nc2nc(Nc3ccc(C)c(S(N)(=O)=O)c3)ncc2F)cc1
Response: 3.11 µM

Query: Short answer please: IC50, up-regulation of ICAM-1 (CD54) by IFNγ in A549 lung epithelial cells, entry C#CCn1ccc2cc(Nc3nc(Nc4ccc(C)c(S(N)(=O)=O)c4)ncc3F)ccc21
Response: 4.88 µM

Query: Short answer please: IC50, up-regulation of ICAM-1 (CD54) by IFNγ in A549 lung epithelial cells, entry Cc1ccc(Nc2ncc(C)c(Nc3ccc4c(c3)NC(=O)CO4)n2)cc1S(N)(=O)=O
Response: 8.92 µM

Query: Short answer please: IC50, up-regulation of ICAM-1 (CD54) by IFNγ in A549 lung epithelial cells, entry COc1c(C)cc(Nc2ncc(F)c(Nc3ccc(C(C)(C)C)cc3)n2)cc1S(N)(=O)=O
Response: 12.4 µM

Query: Short answer please: IC50, up-regulation of ICAM-1 (CD54) by IFNγ in A549 lung epithelial cells, entry COc1ccc(Nc2nc(Nc3ccc(N4CCN(C)CC4)c(S(N)(=O)=O)c3)ncc2F)cc1Cl
Response: 8.1 µM

Query: Short answer please: IC50, up-regulation of ICAM-1 (CD54) by IFNγ in A549 lung epithelial cells, entry Cc1ccc(Nc2ncc(F)c(Nc3ccc4sccc4c3)n2)cc1S(N)(=O)=O
Response: 10.7 µM
